Recorded measurements of ΔTm at 10 µM, one per entry
Molecular target: p53 Y220C mutant protein (amino acid residues 94-293) (Homo sapiens, UniProt P04637, Y220C)
Construct: p53 Y220C mutant protein (amino acid residues 94-293)
Test: Thermal Shift Assay (TSA), dTM
Format: binding
Conditions: thermal shift, 10 uM compound; read-out: TSA P53 Y220C dTM (10 uM)
Description: Thermal Shift Assay (TSA) Protocol 5 μM recombinant p53 Y220C mutant protein (amino acid residues 94-293) was incubated with 10 μM or 100 μM compound for 3 hours at 20 °C in buffer containing 20 mM HEPES, pH7.4, 100 mM NaCl, 0.01% Pluronic F-127, and 1% DMSO in the presence of 400-fold diluted Sypro Orange (ThermoFisher Scientific catalog number 4461146), on a 384-well PCR plate (Applied Biosystems catalog number 4483285). The volume was 5 μL/well. […]
PARAMETER_MEASURED: ΔTm at 10 µM

>>> print(df.to_string())
                                   compound     reading
0  COc1cc(S(C)(=O)=O)ccc1NCC#Cc1nc2c(N[C@@H]3C[C@H]4CC[C@H](N4)[C@@H]3F)cccn2c1SC(F)(F)F [Example 131]     ≥ 10 °C
1  CNC(=O)c1ccc(OC)c(NCC#Cc2cc3c(N[C@@H]4CCN(C)C[C@@H]4F)nccn3c2SC(F)(F)F)c1 [Example 156]     ≥ 10 °C
2  COc1cc(S(C)(=O)=O)ccc1NCC#Cc1nc2c(NC3CCN(CCS(C)(=O)=O)CC3)cccn2c1CC(F)(F)F [Example 5]  5 to 10 °C
3  CNC(=O)c1ccc(OC)c(NCC#Cc2nc3c(N[C@@H]4CNC[C@@H]4F)cccn3c2SC(F)(F)F)c1 [Example 152]     ≥ 10 °C
4  CNC(=O)c1ccc(NCC#Cc2nn3c(N[C@@H]4CCN(C)C[C@@H]4F)cccc3c2SC(F)F)c(OC)c1 [Example 219]  5 to 10 °C
5  CNC(=O)c1ccc(OC)c(NCC#Cc2nc3c(N[C@@H]4CCNC[C@@H]4F)cccn3c2SC(F)(F)F)n1 [Example 217]     ≥ 10 °C
6  CNC(=O)c1ccc(NCC#Cc2nc3c(N[C@@H]4CN(C)C[C@@H]4F)cccn3c2SC(F)(F)F)c(OC)c1 [Example 103]     ≥ 10 °C
7  CNC(=O)c1ccc(OC)c(NCC#Cc2nc3c(N[C@H]4C[C@@H]5CC[C@@H](N5)[C@H]4F)cccn3c2SC(F)(F)F)c1 [Example 203]     ≥ 10 °C
8  CNC(=O)c1ccc(NCC#Cc2nc3c(N[C@@H]4CCN(C)C[C@@H]4F)cc(F)cn3c2SC(F)(F)F)c(OC)c1 [Example 180]     ≥ 10 °C

====

Target: p53 Y220C (Homo sapiens, UniProt P04637, Y220C)
Assay: Luciferase Reporter Assay (Luc), p53 response element, NClH1299 cells with inducible p53 Y220C
Assay type: cell-based
Details: Emax; luciferase reporter, NClH1299 inducible p53 Y220C, 6 hour
Quick reference for Emax among some molecules
PARAMETER_MEASURED: Emax

In [3]: df
Out[3]:
                                   molecule    reading
0  CCNC(=O)c1ccc(OC)c(NCC#Cc2nn3c(N[C@@H]4CCN(C)C[C@@H]4F)cccc3c2SC(F)(F)F)c1 [Example 285]  80 to 90%
1  CNC(=O)c1ccc(NCC#Cc2cc3c(N[C@@H]4CCNC[C@@H]4F)cccn3c2SC(F)(F)F)c(OC)c1 [Example 354]      > 90%
2  CNC(=O)c1ccc(OC)c(NCC#Cc2cn3c(N[C@@H]4CCNC[C@@H]4F)cccc3c2SC(F)(F)F)c1 [Example 381]      > 90%
3  CNC(=O)c1ccc(OC)c(NCC#Cc2nc3c(N[C@@H]4C[C@@H]5CC[C@H]4N5C)cccn3c2SC(F)(F)F)c1 [Example 249]      < 70%
4  CNC(=O)c1ccc(OC)c(NCC#Cc2nc3c(N[C@H]4C[C@@H]5CC[C@H]4N5)cccn3c2SC(F)(F)F)c1 [Example 245]      < 70%

====

Test system: H1299 p53 R273H
Assay: Cell Proliferation Assay (CellTiter-Glo, CTG), H1299 p53 R273H (NClH1299-inducible p53 R273H)
Type: cell-based
Conditions: Homo sapiens, NCI-H1299, 120 h, CellTiter-Glo, H1299 p53 R273H, 5 days
pIC50: −log10 of the molar value. Structures can show the parent of a compound that is named as a salt.
PARAMETER_MEASURED: pIC50

>>> df
                                   molecule   assayed_target  parameter_measured       reading
0  COc1cc(S(C)(=O)=O)ccc1NCC#Cc1nc2c(NC3CC4(C3)CN(C)C4)cccn2c1CC(F)(F)F  H1299 p53 R273H               pIC50  5.10 to 5.30
1  CNC(=O)c1ccc(NCC#Cc2cc3c(N[C@@H]4CCN(C)C[C@@H]4F)cccn3c2SC(F)F)c(OC)c1  H1299 p53 R273H               pIC50  5.00 to 5.10
2  COc1cc(S(C)(=O)=O)ccc1NCC#Cc1nc2c(NC3CCN(C)CC3)cc(N)cn2c1CC(F)(F)F  H1299 p53 R273H               pIC50        ≤ 5.00
3  CCOc1c(C#CCNc2ccc(C(=O)NC)cc2OC)nc2c(N[C@@H]3CCN(C)C[C@@H]3F)cccn12  H1299 p53 R273H               pIC50        ≤ 5.00
4  CNC(=O)c1ccc(C)c(NCC#Cc2nc3c(N[C@@H]4CCN(C)C[C@@H]4F)cccn3c2SC(F)(F)F)c1  H1299 p53 R273H               pIC50        ≤ 5.00
5  CNC(=O)c1ccc(OC)c(NCC#Cc2nc3c(N[C@@H]4CNC[C@@H]4F)cccn3c2SC(F)(F)F)c1  H1299 p53 R273H               pIC50        ≤ 5.00
6  C=C(C)C(=O)Nc1cc(NC2CCN(C)CC2)c2nc(C#CCNc3ccc(C(=O)NC)cc3OC)c(CC(F)(F)F)n2c1 [Example 13, formic acid salt]  H1299 p53 R273H               pIC50        ≤ 5.00
7  CNC(=O)c1cccc(NCC#Cc2nc3c(N[C@@H]4CCN(C)C[C@@H]4F)cccn3c2SC(F)(F)F)n1  H1299 p53 R273H               pIC50        ≤ 5.00
8  CNC(=O)c1ccc(NCC#Cc2nc3c(N[C@@H]4CN(C)CC[C@@H]4F)cccn3c2SC(F)(F)F)c(OC)c1  H1299 p53 R273H               pIC50  5.10 to 5.30
9  CNC(=O)c1ccc(OC)c(NCC#Cc2nc3c(N[C@@H]4CN(C)C[C@@H]4F)cccn3c2SC(F)(F)F)n1  H1299 p53 R273H               pIC50        ≤ 5.00

====

Biological target: p53 Y220C (Homo sapiens, UniProt P04637, Y220C)
Assay: Luciferase Reporter Assay (Luc), p53 response element, NClH1299 cells with inducible p53 Y220C
Format: cell-based
Conditions: AC50; luciferase reporter, NClH1299 inducible p53 Y220C, 6 hour; read-out: Luc P53 Y220C AC50
PARAMETER_MEASURED: AC50

>>> df
                                    molecule         reading
 0  CNC(=O)c1ccc(OC)c(NCC#Cc2nc3c(N[C@@H]4CN(C)C[C@@H]4F)cccn3c2CC(F)(F)F)n1 [Example 262]  750 to 1500 nM
 1  COc1cc(C(=O)NC[C@@H](C)O)ccc1NCC#Cc1cc2c(N[C@@H]3CCN(C)C[C@@H]3F)cccn2c1SC(F)(F)F [Example 416]        < 750 nM
 2  COc1cc(C(=O)N2CC(C)(O)C2)ccc1NCC#Cc1cc2c(N[C@@H]3CCNC[C@@H]3F)cccn2c1SC(F)(F)F [Example 406]        < 750 nM
 3  CNC(=O)c1cnc(OC)c(NCC#Cc2cc3c(N[C@@H]4CNC[C@@H]4F)nccn3c2SC(F)(F)F)c1 [Example 313]  750 to 1500 nM
 4  COc1cc(P(C)(C)=O)ccc1NCC#Cc1cc2c(N[C@@H]3CCN(C)C[C@@H]3F)nccn2c1SC(F)F [Example 257]        < 750 nM
 5  CNC(=O)c1ccc(OC)c(NCC#Cc2nc3c(N[C@@H]4CCN(C)C[C@@H]4F)cccn3c2SC(F)(F)F)c1F [Example 320]       > 3000 nM
 6  COc1cc(C(=O)NCC(C)(C)O)ccc1NCC#Cc1cc2c(N[C@@H]3CCNC[C@@H]3F)cccn2c1SC(F)(F)F [Example 408]        < 750 nM
 7  CNC(=O)c1ccc(C(=O)NC)c(NCC#Cc2cc3c(N[C@@H]4CCN(C)C[C@@H]4F)nccn3c2SC(F)(F)F)c1 [Example 348]        < 750 nM
 8  COc1ccc(C(=O)NCC2CN(C)C2)cc1NCC#Cc1nc2c(N[C@@H]3CCOC[C@@H]3F)cccn2c1SC(F)(F)F [Example 228]       > 3000 nM
 9  CN1CC[C@@H](Nc2cccn3c(SC(F)(F)F)c(C#CCNc4ccc(C(=O)NCCS(C)(=O)=O)cc4)cc23)[C@@H](F)C1 [Example 430]        < 750 nM
10  CNC(=O)c1ccc(OC)c(NCC#Cc2cc3c(N[C@@H]4CCNC[C@@H]4F)nccn3c2SC(F)(F)F)c1 [Example 289]        < 750 nM
11  CNC(=O)c1ccc(OC)c(NCC#Cc2cc3c(N[C@@H]4CN(C)C[C@@H]4F)nccn3c2SC(F)F)c1 [Example 331]        < 750 nM
12  COc1nc(P(C)(C)=O)ncc1NCC#Cc1cc2c(N[C@@H]3CCN(C)C[C@@H]3F)cccn2c1SC(F)(F)F [Example 445]        < 750 nM
